FYI, the data here is from ChEMBL document CHEMBL4049392.

Known MIC of a selection of compounds
system: Candida albicans; assay: Anti-fungal activity against Candida albicans ATCC 90028 after 48 hrs by broth microdilution method; format: functional; conditions: ATCC 90028, 48 h
assayReadout: MIC (µg/mL)

| compound | assayReadout | unitLabel | quantitativeResult |
| --- | --- | --- | --- |
| Cl.O=C(/C=C/c1ccccc1)OC(Cn1ccnc1)c1ccccc1 (stereo unspecified) | MIC | µg/mL | 1 |
| Cl.O=C(OC(Cn1ccnc1)c1ccc(Cl)cc1)C1CCCCC1 (stereo unspecified) | MIC | µg/mL | 1 |
| CCC(=O)OC(Cn1ccnc1)c1ccc(Cl)cc1.Cl (stereo unspecified) | MIC | µg/mL | 4 |
| CCCCC(=O)OC(Cn1ccnc1)c1ccc(Cl)cc1.Cl (stereo unspecified) | MIC | µg/mL | 0.5 |
| Cl.O=C(CCC(=O)c1ccccc1)OC(Cn1ccnc1)c1ccc(Cl)cc1 (stereo unspecified) | MIC | µg/mL | 4 |
| Cl.O=C(/C=C/c1ccccc1)OC(Cn1ccnc1)c1ccc(Cl)cc1 (stereo unspecified) | MIC | µg/mL | 4 |
